This collection of values is drawn from ChEMBL document CHEMBL1138210.

Kindly supply the reported pIC50 values for the records listed here.
experimental-system: Androgen receptor (Rattus norvegicus)
assay-info: Antagonist activity against rat AR transfected in mouse C2C12 cells by luciferase reporter transactivation assay relative to DHT
Keep in mind that pIC50 stands for -log10 of concentration in molar terms.

Answer with the recorded pIC50 for the compound listed here: N#Cc1ccc(N2C(=O)[C@H]3[C@@H]4CC[C@@H](C4)N3C2=O)c2ccccc12
6.59

Answer with the recorded pIC50 for the compound listed here: N#Cc1ccc(N2C(=O)[C@@H]3[C@H](O)CCN3C2=O)c2ccccc12 (single isomer, unassigned)
7.22

----------
Kindly supply the reported pEC50 values for the records listed here.
experimental-system: Androgen receptor (Rattus norvegicus)
Sequence (P15207 whole entry): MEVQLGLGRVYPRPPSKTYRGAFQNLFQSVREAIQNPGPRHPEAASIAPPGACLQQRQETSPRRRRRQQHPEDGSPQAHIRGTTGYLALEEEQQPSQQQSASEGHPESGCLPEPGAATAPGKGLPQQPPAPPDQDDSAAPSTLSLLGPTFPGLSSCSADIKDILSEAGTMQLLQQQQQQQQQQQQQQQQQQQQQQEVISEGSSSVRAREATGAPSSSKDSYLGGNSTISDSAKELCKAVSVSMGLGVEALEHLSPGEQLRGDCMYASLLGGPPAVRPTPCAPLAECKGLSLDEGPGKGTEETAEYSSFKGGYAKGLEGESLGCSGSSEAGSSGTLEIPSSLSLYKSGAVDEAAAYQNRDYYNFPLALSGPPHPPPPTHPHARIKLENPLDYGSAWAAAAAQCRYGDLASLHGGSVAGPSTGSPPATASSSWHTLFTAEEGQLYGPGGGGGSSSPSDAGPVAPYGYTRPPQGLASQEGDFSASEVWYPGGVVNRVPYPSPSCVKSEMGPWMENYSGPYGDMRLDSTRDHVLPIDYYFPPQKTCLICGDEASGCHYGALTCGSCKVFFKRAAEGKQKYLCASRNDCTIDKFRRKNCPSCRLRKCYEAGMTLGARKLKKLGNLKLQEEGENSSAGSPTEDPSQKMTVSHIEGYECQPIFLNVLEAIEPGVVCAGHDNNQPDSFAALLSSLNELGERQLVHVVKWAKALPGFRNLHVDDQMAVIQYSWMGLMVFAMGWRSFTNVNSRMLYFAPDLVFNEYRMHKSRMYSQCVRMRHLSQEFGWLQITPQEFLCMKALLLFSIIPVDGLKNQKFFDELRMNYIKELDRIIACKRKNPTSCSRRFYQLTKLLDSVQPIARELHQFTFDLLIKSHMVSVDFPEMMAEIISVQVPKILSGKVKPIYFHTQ
Keep in mind that pEC50 stands for -log10 of concentration in molar terms.

Answer with the recorded pEC50 for the molecule listed here: O=C1[C@@H]2[C@H](O)CCN2C(=O)N1c1ccc([N+](=O)[O-])c2ccccc12 (single isomer, unassigned)
6.55

Answer with the recorded pEC50 for the molecule listed here: O=C1C2C(O)CCN2C(=O)N1c1ccc([N+](=O)[O-])c2ccccc12 (racemic)
8.36

Answer with the recorded pEC50 for the molecule listed here: O=C1[C@H]2C[C@H](O)CN2C(=O)N1c1ccc([N+](=O)[O-])c2ccccc12
6.58

Answer with the recorded pEC50 for the molecule listed here: O=C1[C@H]2[C@@H]3CC[C@@H](C3)N2C(=O)N1c1ccc([N+](=O)[O-])c2ccccc12
6.41

----------
experimental-system: Androgen receptor (Homo sapiens)
Sequence (P10275 whole entry): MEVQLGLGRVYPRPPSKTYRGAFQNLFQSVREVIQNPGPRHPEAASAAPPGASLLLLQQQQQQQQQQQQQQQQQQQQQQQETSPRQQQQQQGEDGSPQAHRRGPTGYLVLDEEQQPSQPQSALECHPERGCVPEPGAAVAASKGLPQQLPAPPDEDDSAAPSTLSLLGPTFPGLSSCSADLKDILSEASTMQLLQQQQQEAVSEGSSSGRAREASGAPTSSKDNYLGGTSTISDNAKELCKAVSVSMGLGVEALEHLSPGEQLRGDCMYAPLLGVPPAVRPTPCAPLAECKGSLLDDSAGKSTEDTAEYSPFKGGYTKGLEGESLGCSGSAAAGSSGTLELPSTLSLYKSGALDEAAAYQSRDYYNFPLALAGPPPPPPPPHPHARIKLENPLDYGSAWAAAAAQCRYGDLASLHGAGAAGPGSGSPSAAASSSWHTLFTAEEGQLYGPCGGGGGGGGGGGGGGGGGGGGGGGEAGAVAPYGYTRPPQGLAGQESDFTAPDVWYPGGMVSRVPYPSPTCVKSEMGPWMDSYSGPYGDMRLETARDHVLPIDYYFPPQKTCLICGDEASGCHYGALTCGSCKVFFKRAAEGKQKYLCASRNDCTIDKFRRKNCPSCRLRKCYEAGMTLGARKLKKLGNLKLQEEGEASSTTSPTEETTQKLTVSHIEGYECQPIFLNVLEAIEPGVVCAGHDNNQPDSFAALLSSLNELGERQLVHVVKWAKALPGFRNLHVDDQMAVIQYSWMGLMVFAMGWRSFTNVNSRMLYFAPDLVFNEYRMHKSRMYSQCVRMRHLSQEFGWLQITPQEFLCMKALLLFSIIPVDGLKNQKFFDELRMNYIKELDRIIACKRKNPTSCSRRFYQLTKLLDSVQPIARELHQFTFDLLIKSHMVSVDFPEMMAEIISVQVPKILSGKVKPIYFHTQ
assay-info: biochemical
Description: Displacement of [3H]DHT from human AR in MDA453 cells
experimental-readout: pKi
Keep in mind that pKi stands for -log10 of concentration in molar terms.

Answer with the recorded pKi for the compound listed here: O=C1[C@H]2[C@@H]3CC[C@@H](C3)N2C(=O)N1c1ccc([N+](=O)[O-])c2ccccc12
9.00

Answer with the recorded pKi for the compound listed here: O=C1[C@H]2C[C@@H](O)CN2C(=O)N1c1ccc([N+](=O)[O-])c2ccccc12
8.82

Answer with the recorded pKi for the compound listed here: O=C1C2CCCN2C(=O)N1c1ccc([N+](=O)[O-])c2ccccc12 (stereo not drawn)
8.77

Answer with the recorded pKi for the compound listed here: O=C1[C@@H]2[C@H](O)CCN2C(=O)N1c1ccc([N+](=O)[O-])c2ccccc12 (single isomer, unassigned)
8.82

Answer with the recorded pKi for the compound listed here: O=C1C2C(O)CCN2C(=O)N1c1ccc([N+](=O)[O-])c2ccccc12 (racemic)
8.46

Answer with the recorded pKi for the compound listed here: O=C1[C@H]2C[C@H](O)CN2C(=O)N1c1ccc([N+](=O)[O-])c2ccccc12
8.37

Answer with the recorded pKi for the compound listed here: N#Cc1ccc(N2C(=O)[C@H]3[C@@H]4CC[C@@H](C4)N3C2=O)c2ccccc12
7.62

Answer with the recorded pKi for the compound listed here: O=C1[C@@H]2[C@H](O)CCN2C(=O)N1c1ccc([N+](=O)[O-])c2ccccc12
8.68
